Examples of molecules with documented NADPH fluorescence slope follow.
Target: Voltage-gated potassium channel subunit beta-2 (Rattus norvegicus) (UniProt P62483)
Sequence (P62483 whole entry, looked up): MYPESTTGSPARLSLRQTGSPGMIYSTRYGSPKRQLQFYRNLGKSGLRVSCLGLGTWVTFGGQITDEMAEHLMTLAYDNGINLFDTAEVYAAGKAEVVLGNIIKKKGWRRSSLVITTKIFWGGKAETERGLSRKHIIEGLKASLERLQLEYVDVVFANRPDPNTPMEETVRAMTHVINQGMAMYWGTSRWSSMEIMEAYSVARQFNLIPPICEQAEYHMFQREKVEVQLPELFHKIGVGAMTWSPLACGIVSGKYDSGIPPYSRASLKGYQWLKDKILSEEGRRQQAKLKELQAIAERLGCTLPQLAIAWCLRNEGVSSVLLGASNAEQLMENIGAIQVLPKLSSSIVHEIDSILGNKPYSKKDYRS
Experiment: KvBeta positive modulators, primary screen, biochemical, NADPH fluorescence (AID 623);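 also: fluorescence intensity change per second fitted from 20 to 320 s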
Settings: Recombinant KvBeta, NADPH fluorescence decrease slope, 10 min; at 10 µM; stronger effect = lower value

- Molecule: "CC(C)C(NC(=O)c1ccco1)C(=O)NCC(c1ccco1)N1CCCCC1 (stereo unspecified)"
  Assayed Target: "Voltage-gated potassium channel subunit beta-2 (Rattus norvegicus) (UniProt P62483)"
  NADPH fluorescence slope: "-2.6e-05"
- Molecule: "c1ccc2c(c1)[nH]c1c(N3CCN(C4CCCCC4)CC3)ncnc12"
  Assayed Target: "Voltage-gated potassium channel subunit beta-2 (Rattus norvegicus) (UniProt P62483)"
  NADPH fluorescence slope: "-1.6e-05"
- Molecule: "Brc1ccc2c(c1)CNc1c(ncnc1N1CCOCC1)O2"
  Assayed Target: "Voltage-gated potassium channel subunit beta-2 (Rattus norvegicus) (UniProt P62483)"
  NADPH fluorescence slope: "2.8e-05"
- Molecule: "CCCCc1nc(NCC2CCCO2)c(C#N)c2c1COC(C)(C)C2 (stereo unspecified)"
  Assayed Target: "Voltage-gated potassium channel subunit beta-2 (Rattus norvegicus) (UniProt P62483)"
  NADPH fluorescence slope: "-7.2e-05"
- Molecule: "CCOC(=O)c1[nH]c(C)c(C(=O)NC)c1C"
  Assayed Target: "Voltage-gated potassium channel subunit beta-2 (Rattus norvegicus) (UniProt P62483)"
  NADPH fluorescence slope: "-1.3e-05"
- Molecule: "CCC(=O)Nc1ccc(-c2nnc(SCC(=O)NCC3CCCO3)n2C)cc1 (stereo unspecified)"
  Assayed Target: "Voltage-gated potassium channel subunit beta-2 (Rattus norvegicus) (UniProt P62483)"
  NADPH fluorescence slope: "-5.7e-05"
- Molecule: "O=C(NC1CCCCC1)c1ccc(S(=O)(=O)N2CCCCC2)cc1"
  Assayed Target: "Voltage-gated potassium channel subunit beta-2 (Rattus norvegicus) (UniProt P62483)"
  NADPH fluorescence slope: "1.4e-05"
- Molecule: "c1ccc(CCn2nnnc2C(c2cccs2)N2CCOCC2)cc1 (stereo unspecified)"
  Assayed Target: "Voltage-gated potassium channel subunit beta-2 (Rattus norvegicus) (UniProt P62483)"
  NADPH fluorescence slope: -0.000173
- Molecule: "CCN(CC)Cc1c(O)ccc2c(C)c(CC(=O)OC)c(=O)oc12"
  Assayed Target: "Voltage-gated potassium channel subunit beta-2 (Rattus norvegicus) (UniProt P62483)"
  NADPH fluorescence slope: "-6.9e-06"
- Molecule: "CCOC(=O)C1(CC)NC(c2cccc(F)c2)C2C(=O)N(CC)C(=O)C21 (stereo unspecified)"
  Assayed Target: "Voltage-gated potassium channel subunit beta-2 (Rattus norvegicus) (UniProt P62483)"
  NADPH fluorescence slope: -0.00018
- Molecule: "Cc1cc(Nc2ccccc2)n(-c2ccccc2)n1"
  Assayed Target: "Voltage-gated potassium channel subunit beta-2 (Rattus norvegicus) (UniProt P62483)"
  NADPH fluorescence slope: "-2.4e-05"

* * *

Assay: inhibitors of mutant huntingtin aggregation, primary screen, imaging, exon1htt(103Q)mCFP cells, high-content imaging (AID 483);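 also: compound exposure lasted 3 days before fixation; percent of the per-plate median nuclei count of sample wells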
Conditions: exon1htt(103Q)mCFP cell line, aggregate imaging, at 2 µM; measured here: cell count, toxicity
Examples of molecules with documented nuclei count follow.

- Molecule: "COc1ccc(S(=O)(=O)Cc2ccc(C(=O)NCCc3ccc(S(N)(=O)=O)cc3)o2)cc1"
  nuclei count [%]: 71.5
- Molecule: "Cc1ccc(-n2c(=O)c(C#N)cc3c(=O)n4ccccc4nc32)cc1"
  nuclei count [%]: 99.9
- Molecule: "CC1CCCCC1NC(=O)c1nn(C)c(=O)c2ccccc12 (stereo not drawn)"
  nuclei count [%]: 105
- Molecule: "COc1ccc(-c2[nH]nc3c2C(c2ccncc2)C(C#N)=C(N)O3)cc1 (stereo not drawn)"
  nuclei count [%]: 113
- Molecule: "Cc1ccc(C(=O)NC(Cc2c[nH]c3ccccc23)C(=O)O)o1 (stereo not drawn)"
  nuclei count [%]: 110
- Molecule: "N#Cc1cc2c(nc1SCC(=O)N1CCCCC1)CCCC2"
  nuclei count [%]: 90.1
- Molecule: "CCC(C)Nc1nc2c(c(=O)n(C)c(=O)n2C)n1Cc1ccc(F)cc1 (stereo not drawn)"
  nuclei count [%]: 100
- Molecule: "C=CCSc1nc2sc(C)c(C)c2c(=O)[nH]1"
  nuclei count [%]: 111
- Molecule: "CCC1CCCCN1C(=O)CSc1nnc(-c2ccco2)o1 (stereo not drawn)"
  nuclei count [%]: 100
- Molecule: "CC(O)c1cc2c(cc1NC(=O)c1cnn3c1NC(c1ccco1)CC3C(F)(F)F)OCO2 (stereo not drawn)"
  nuclei count [%]: 109
- Molecule: "COc1ccc(C2=NOC(C(=O)NC3CCCCC3)C2)cc1OC (stereo not drawn)"
  nuclei count [%]: 104
- Molecule: "COc1ccc(-n2c(=O)[nH]cc(C(=O)Nc3ccc(NC(C)=O)cc3)c2=O)cc1"
  nuclei count [%]: 49.8
- Molecule: "O=S(=O)(c1cccs1)N1CCN(C/C=C/c2ccccc2)CC1"
  nuclei count [%]: 108
- Molecule: "COc1cc(-c2noc(-c3ccccc3C(=O)NCc3ccco3)n2)cc(OC)c1OC"
  nuclei count [%]: 112
- Molecule: "Cc1nc(N2CCC(C)CC2)c2c(C)c(C(=O)O)sc2n1"
  nuclei count [%]: 66.2
- Molecule: "CCOC(=O)N1CCC(n2c(=S)[nH]c3cc(OC)c(OC)cc3c2=O)CC1"
  nuclei count [%]: 108
- Molecule: "CC(C)c1nnc(NC(=O)c2ccc(N3C(=O)CCC3=O)cc2)s1"
  nuclei count [%]: 110
- Molecule: "CCn1c(SCC(=O)C(C)(C)C)nnc1-c1cnccn1"
  nuclei count [%]: 98.5
- Molecule: "CCOc1ccc(NC(=O)C2CC(=O)N(CC)C(=Nc3ccc4c(c3)OCO4)S2)cc1 (stereo not drawn)"
  nuclei count [%]: 81.1
- Molecule: "COc1ccccc1NCN1C(=O)CCC1=O"
  nuclei count [%]: 97.3
- Molecule: "CCOCCCNC(=O)C(NC(=O)c1ccccn1)c1ccc(C)cc1 (stereo not drawn)"
  nuclei count [%]: 116
- Molecule: "CC1(C)Oc2ccc3ccc(=O)oc3c2C(N2CCCCC2)C1O (stereo not drawn)"
  nuclei count [%]: 94.7
- Molecule: "CCc1nnc(NC(=O)COC(=O)CN2C(=O)c3ccccc3C2=O)s1"
  nuclei count [%]: 91.2
